Reference for the values: the supplement of paper PMC11061612

Provide the recorded combination Emax for the entries that follow.
test system: DB (B-Cell Non-Hodgkin's Lymphoma); test: combination Emax (second highest fraction inhibited in the dose matrix, 72 h); higher = more inhibition; extreme values may be limits of the assay
Give only the figure.

What does the data say about its combination Emax? Entry: N#Cc1cnc(Nc2cc(NC[C@H]3CNCCO3)c(C(F)(F)F)cn2)cn1 [SRA737] + C=CCn1c(=O)c2cnc(Nc3ccc(N4CCN(C)CC4)cc3)nc2n1-c1cccc(C(C)(C)O)n1 [AZD1775] (first compound max 10 µM, partner max 1 µM)
0.87

Returns the measured combination Emax for the input compound. Input: Cc1c2c(nn1C)CSCc1cc(n(C)n1)CSc1cc(c3ccccc3c1)OCCCc1c(C(=O)O)n(C)c3c-2c(Cl)ccc13 [AZD5991] + C[C@@H](Nc1cc(F)cc(F)c1)c1cc(C(=O)N(C)C)cc2c(=O)cc(N3CCOCC3)oc12 [AZD8186] (first compound max 1 µM, 7x7, partner max 3 µM)
0.974

Consider the compound shown here: Cc1c2c(nn1C)CSCc1cc(n(C)n1)CSc1cc(c3ccccc3c1)OCCCc1c(C(=O)O)n(C)c3c-2c(Cl)ccc13 [AZD5991] + CS(=O)(=O)CCNCc1ccc(-c2ccc3ncnc(Nc4ccc(OCc5cccc(F)c5)c(Cl)c4)c3c2)o1 [Lapatinib] (first compound max 1 µM, 7x7, partner max 10 µM) What is its recorded combination Emax?
1

Which value of combination Emax has been reported for C[C@@H](Nc1cc(F)cc(F)c1)c1cc(C(=O)N(C)C)cc2c(=O)cc(N3CCOCC3)oc12 [AZD8186] + CC(=O)c1c(C)c2cnc(Nc3ccc(N4CCNCC4)cn3)nc2n(C2CCCC2)c1=O [Palbociclib] (first compound max 10 µM, 7x7, partner max 10 µM) in the records?
0.601

Any idea what combination Emax was measured for O=C(c1cc(Cc2n[nH]c(=O)c3ccccc23)ccc1F)N1CCN(C(=O)C2CC2)CC1 [Olaparib] + Cc1c2c(nn1C)CSCc1cc(n(C)n1)CSc1cc(c3ccccc3c1)OCCCc1c(C(=O)O)n(C)c3c-2c(Cl)ccc13 [AZD5991] (first compound max 10 µM, 7x7, partner max 1 µM) ?
0.994

Fill in: combination Emax of COc1nnc2ccc(N3CCC(c4ccc(OCCN5CCN(C)C(=O)[C@H]5C)cc4)CC3)nn12 [AZD5153] + Cc1c2c(nn1C)CSCc1cc(n(C)n1)CSc1cc(c3ccccc3c1)OCCCc1c(C(=O)O)n(C)c3c-2c(Cl)ccc13 [AZD5991] (first compound max 1 µM, 7x7, partner max 1 µM) is ___
1

State the recorded combination Emax for this entry: CN(CCO)CC[C@H](CSc1ccccc1)Nc1ccc(S(=O)(=O)NC(=O)c2ccc(N3CCC([C@@H](O)c4ccccc4-c4ccc(Cl)cc4)CC3)cc2)cc1S(=O)(=O)C(F)(F)F [AZD4320] + C[C@@H](Nc1cc(F)cc(F)c1)c1cc(C(=O)N(C)C)cc2c(=O)cc(N3CCOCC3)oc12 [AZD8186] (first compound max 1 µM, 7x7, partner max 3 µM)
0.921

// combination Emax lookup, key: COc1cccc(OCCCN)c1-c1cc(Nc2cnc(C#N)cn2)n[nH]1 [Prexasertib] + C[C@@H]1COCCN1C2=NC(=NC(=C2)C3(CC3)[S@](=N)(=O)C)C4=C5C=CNC5=NC=C4 [AZD6738] (first compound max 1 µM, 7x7, partner max 10 µM)
0.748

Recorded combination Emax of CN(CCO)CC[C@H](CSc1ccccc1)Nc1ccc(S(=O)(=O)NC(=O)c2ccc(N3CCC([C@@H](O)c4ccccc4-c4ccc(Cl)cc4)CC3)cc2)cc1S(=O)(=O)C(F)(F)F [AZD4320] + Cc1cc2ncnn2cc1Nc1ncc2c(n1)n(C1CCOCC1)c(=O)n2C [AZD7648] (first compound max 1 µM, 7x7, partner max 10 µM) , please.
0.976

// combination Emax lookup, key: NC1(C(=O)N[C@@H](CCO)c2ccc(Cl)cc2)CCN(c2ncnc3[nH]ccc23)CC1 [Capivasertib] + Cn1cnc2c(F)c(Nc3ccc(Br)cc3Cl)c(C(=O)NOCCO)cc21 [Selumetinib] (first compound max 10 µM, 7x7, partner max 10 µM)
0.422

What value of measured combination Emax is listed for COc1cccc(OCCCN)c1-c1cc(Nc2cnc(C#N)cn2)n[nH]1 [Prexasertib] + O=C(c1cc(Cc2n[nH]c(=O)c3ccccc23)ccc1F)N1CCN(C(=O)C2CC2)CC1 [Olaparib] (first compound max 1 µM, 7x7, partner max 10 µM) ?
0.687

I am curious: what combination Emax value has been reported for CC1(C)CCC(CN2CCN(c3ccc(C(=O)NS(=O)(=O)c4ccc(NCC5CCOCC5)c([N+](=O)[O-])c4)c(Oc4cnc5[nH]ccc5c4)c3)CC2)=C(c2ccc(Cl)cc2)C1 [Venetoclax] + Cc1cc2ncnn2cc1Nc1ncc2c(n1)n(C1CCOCC1)c(=O)n2C [AZD7648] (first compound max 1 µM, 7x7, partner max 10 µM) ?
0.957

Fill in the blank: the reported combination Emax of CS(=O)(=O)CCNCc1ccc(-c2ccc3ncnc(Nc4ccc(OCc5cccc(F)c5)c(Cl)c4)c3c2)o1 [Lapatinib] + NC1(c2ccc(-c3nc4ccn5c(=O)[nH]nc5c4cc3-c3ccccc3)cc2)CCC1 [MK-2206] (first compound max 10 µM, 7x7, partner max 10 µM) is ____.
0.944

---

test system: SUIT-2 (Pancreatic Carcinoma); test: combination Emax (second highest fraction inhibited in the dose matrix, 72 h); higher = more inhibition; extreme values may be limits of the assay
Reported Endpoint: combination Emax
Field format: numeric only.

Which value of combination Emax has been reported for Cc1nc(Nc2ncc(C(=O)Nc3c(C)cccc3Cl)s2)cc(N2CCN(CCO)CC2)n1 [Dasatinib] + CC(=O)Nc1cccc(-n2c(=O)n(C3CC3)c(=O)c3c(Nc4ccc(I)cc4F)n(C)c(=O)c(C)c32)c1 [Trametinib] (first compound max 2 µM, 7x7, partner max 1 µM) in the records?
0.671

Sample CC1(C)CCC(CN2CCN(c3ccc(C(=O)NS(=O)(=O)c4ccc(NCC5CCOCC5)c([N+](=O)[O-])c4)c(Oc4cnc5[nH]ccc5c4)c3)CC2)=C(c2ccc(Cl)cc2)C1 [Venetoclax] + CCN(CCO)CCCOc1ccc2c(Nc3cc(CC(=O)Nc4cccc(F)c4)[nH]n3)ncnc2c1 [AZD2811] (first compound max 1 µM, 7x7, partner max 1 µM) — what was its combination Emax?
0.187

Which combination Emax is listed for CN(C)CCCOc1ccc(-c2ccc3ncc4c(c3c2)n(C2CCOCC2)c(=O)n4C)cn1 [AZD0156] + O=C(c1cc(Cc2n[nH]c(=O)c3ccccc23)ccc1F)N1CCN(C(=O)C2CC2)CC1 [Olaparib] (first compound max 3 µM, partner max 3 µM) ?
0.195

---

For each entry below, report its combination Emax value.
tested on: RH-1 (Ewing's Sarcoma); test: combination Emax (second highest fraction inhibited in the dose matrix, 72 h); higher = more inhibition; extreme values may be limits of the assay
Lab note: record just the number, no unit beside it.

What value of combination Emax on RH-1 (Ewing's Sarcoma) does CN(CCO)CC[C@H](CSc1ccccc1)Nc1ccc(S(=O)(=O)NC(=O)c2ccc(N3CCC([C@@H](O)c4ccccc4-c4ccc(Cl)cc4)CC3)cc2)cc1S(=O)(=O)C(F)(F)F [AZD4320] + CCN(CCO)CCCOc1ccc2c(Nc3cc(CC(=O)Nc4cccc(F)c4)[nH]n3)ncnc2c1 [AZD2811] (first compound max 1 µM, 7x7, partner max 1 µM) have?
0.913

Missing value: combination Emax, RH-1 (Ewing's Sarcoma), entry C[C@@H](c1ccc2nccn2c1)n1nnc2ncc(-c3cnn(C)c3)nc21 [Savolitinib] + CN(CC[C@H](CSC1=CC=CC=C1)NC2=C(C=C(C=C2)S(=O)(=O)NC(=O)C3=CC=C(C=C3)N4CCC(CC4)[C@H](C5=CC=CC=C5C6=CC=C(C=C6)Cl)O)S(=O)(=O)C(F)(F)F)CCO [AZD4320] (first compound max 1 µM, 7x7, partner max 1 µM) . Fill in?
0.488

Please tell me: combination Emax of CCN(CCO)CCCOc1ccc2c(Nc3cc(CC(=O)Nc4cccc(F)c4)[nH]n3)ncnc2c1 [AZD2811] + C[C@@H]1COCCN1C2=NC(=NC(=C2)C3(CC3)[S@](=N)(=O)C)C4=C5C=CNC5=NC=C4 [AZD6738] (first compound max 1 µM, 7x7, partner max 10 µM) , system RH-1 (Ewing's Sarcoma)?
1

API: value(readout=combination Emax, system=RH-1 (Ewing's Sarcoma)) for record COc1nnc2ccc(N3CCC(c4ccc(OCCN5CCN(C)C(=O)[C@H]5C)cc4)CC3)nn12 [AZD5153] + CC1(C)CCC(CN2CCN(c3ccc(C(=O)NS(=O)(=O)c4ccc(NCC5CCOCC5)c([N+](=O)[O-])c4)c(Oc4cnc5[nH]ccc5c4)c3)CC2)=C(c2ccc(Cl)cc2)C1 [Venetoclax] (first compound max 1 µM, 7x7, partner max 1 µM)
0.334

Could you share what combination Emax was measured for COc1cccc(OCCCN)c1-c1cc(Nc2cnc(C#N)cn2)n[nH]1 [Prexasertib] + C[C@@H]1COCCN1C2=NC(=NC(=C2)C3(CC3)[S@](=N)(=O)C)C4=C5C=CNC5=NC=C4 [AZD6738] (first compound max 1 µM, 7x7, partner max 10 µM) , tested on RH-1 (Ewing's Sarcoma)?
1

Item: COc1cccc2c1C(=O)c1c(O)c3c(c(O)c1C2=O)C[C@@](O)(C(=O)CO)C[C@@H]3O[C@H]1C[C@H](N)[C@H](O)[C@H](C)O1 [Doxorubicin] + Cc1cc2ncnn2cc1Nc1ncc2c(n1)n(C1CCOCC1)c(=O)n2C [AZD7648] (first compound max 1 µM, 7x7, partner max 10 µM) Test system: RH-1 (Ewing's Sarcoma) Read-out: combination Emax Value: ?
1
